Data credit: paper PMC6270570

Test: PAMPA-GI permeability (egg lecithin in dodecane)
Format: in vitro ADME
Settings: pH 6.5, 2 h of incubation, read-out: PAMPA-GI Pe
Experimental: The following protocol was applied to measure the Pe through the artificial membrane to predict oral absorption and BBB permeation. […] The effective permeability of BBB was measured using phospholipid mixture from porcine polar brain lipid extract, composed by PC 12.6%, phosphatidylethanolamine (PE) 33.1%, phosphatidylserine (PS) 18.5%, phosphatidylinositol (PI) 4.1%, phospatidic acid (PA) 0.8% and 30.9% of other compounds (purchased from Avantis Polar Lipids, Alabaster, AL, USA). […]
For each of the compounds below, state its Papp at 2 h, 500 µM.
Write down the numeric answer in ×10⁻⁶ cm/s and omit the unit.

Entry `C[C@H](NC(=O)[C@@H](C)c1ccc(-c2ccccc2)c(F)c1)C(=O)N[C@H](C(=O)OC(C)(C)C)c1ccccc1` : reported Papp at 2 h, 500 µM = ?
3.6

I would be grateful if you could share the reported Papp at 2 h, 500 µM for `CN1C(=O)[C@H](NC(=O)Cc2ccc(-c3ccccc3)c(F)c2)c2ccccc2-c2ccccc21` .
2.5

Recorded Papp at 2 h, 500 µM of `CN1C(=O)[C@@H](NC(=O)Cc2ccc(-c3ccccc3)c(F)c2)c2ccccc2-c2ccccc21` , please.
2.5

Recorded Papp at 2 h, 500 µM of C[C@H](NC(=O)[C@@H](O)c1cc(F)cc(F)c1)C(=O)N[C@@H]1C(=O)N(C)c2ccccc2-c2ccccc21 [LY-411575, reference compound] , please.
2.3

Reported Papp at 2 h, 500 µM for C[C@@H](C(=O)O)c1ccc(-c2ccccc2)c(F)c1 [R-FLU, (R)-enantiomer of flurbiprofen, reference compound] : what is it?
2.4

# query: Papp at 2 h, 500 µM of entry CC(C)[C@H](O)C(=O)N[C@@H](C)C(=O)N[C@@H]1C(=O)N(C)CCc2ccccc21 [LY-450139, reference compound]
1.6

Papp at 2 h, 500 µM for C[C@H](NC(=O)Cc1cc(F)cc(F)c1)C(=O)N[C@H](C(=O)OC(C)(C)C)c1ccccc1 [DAPT, reference compound] ?
2.5

Looking for the measured Papp at 2 h, 500 µM of `C[C@H](NC(=O)Cc1ccc(-c2ccccc2)c(F)c1)C(=O)N[C@H](C(=O)OC(C)(C)C)c1ccccc1` , can you help?
2.1

Given the compound `C[C@H](NC(=O)[C@H](C)c1ccc(-c2ccccc2)c(F)c1)C(=O)N[C@H](C(=O)OC(C)(C)C)c1ccccc1` , what is its reported Papp at 2 h, 500 µM?
3.7
